The values you see were collected from patent US20010039258A1.

# ASSAY TARGET: α-interferon (Homo sapiens, UniProt P01563)
# Construct: purchased Schering Plough Corp
# Sequence (P01563 24-188): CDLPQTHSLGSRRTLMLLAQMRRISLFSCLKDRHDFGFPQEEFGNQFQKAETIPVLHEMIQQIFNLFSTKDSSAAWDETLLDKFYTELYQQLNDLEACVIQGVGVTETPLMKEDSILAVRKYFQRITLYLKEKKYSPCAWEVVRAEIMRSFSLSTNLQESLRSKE
# ASSAY DETAILS: Isothermal titration calorimetry of perturbant complexing with α-interferon
# Assay type: binding
# CONDITION PARAMETERS: pH 7; read-out: apparent dissociation constant

STRUCTURE AS SMILES: O=C(O)CCCc1ccc(NC(=O)c2ccccc2)cc1
ASSAY TARGET: α-interferon (Homo sapiens, UniProt P01563)
Kd [µM]: 100

* * *

# ASSAY TARGET: rhGH (Homo sapiens)
# Sequence (P01241 27-217): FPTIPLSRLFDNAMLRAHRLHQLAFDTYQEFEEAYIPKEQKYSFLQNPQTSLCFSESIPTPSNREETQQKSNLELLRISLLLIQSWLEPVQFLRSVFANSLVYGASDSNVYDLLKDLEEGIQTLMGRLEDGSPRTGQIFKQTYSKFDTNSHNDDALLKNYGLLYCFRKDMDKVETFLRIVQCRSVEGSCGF
# ASSAY DETAILS: Isothermal titration calorimetry of rhGH with perturbants
# Type: binding
# CONDITION PARAMETERS: pH 7.5; 30° C.
pKd: −log10 of the molar value.

STRUCTURE AS SMILES: O=C(N[C@@H](Cc1ccccc1)C(=O)O)c1ccccc1O
ASSAY TARGET: rhGH (Homo sapiens)
pKd: 5.95
//
STRUCTURE AS SMILES: O=C(O)c1ccc(NS(=O)(=O)c2ccccc2)cc1
ASSAY TARGET: rhGH (Homo sapiens)
pKd: 8.95
